# Tested on: CAKI-1 renal
# PROTOCOL TEXT: NCI-60 one-dose screen, 48 h
# PARTICULARS: 10 µM unless noted
The panel holds about 83,000 compounds, 20% with a hit somewhere; the sample as a whole holds those more often. Activity calls are given as the source filed them. The calls were made as follows: active = growth percent below 10; inactive = the rest.
// classify into 1.0 for active, 0.0 for inactive

CN1CCN(Cc2ccc(NC(=O)c3cncc(C#Cc4cnc5ccc(OCC(F)F)nn45)c3)cc2C(F)(F)F)CC1    1.0

GET /call?item= `CCOC(=O)Nc1ccc2c(ccn2C(=O)c2cccc(F)c2)c1` returns the recorded outcome of this test.
0.0

Per the assay record, what outcome was assigned to `CC/C(=C(/c1ccc(Cl)cc1)c1ccc(OCCN)cc1)c1ccccc1` ?
0.0

Called result for `N#C/C(=C\c1cccc2c1OCO2)C(=O)Nc1sc2c(c1C#N)CCCC2`
0.0

Call for entry Cc1[nH]c(C(=O)Nc2ccccc2OCc2cccc(C(=O)NC3CCCNC3)c2)c(Cl)c1Cl (stereo not drawn) :
1.0

Any idea what this test logged for `Nc1ccc(Nc2ncnc3sc4c(c23)CCN(Cc2ccccc2)C4)cc1` ?
0.0

====

# System: UACC-62 melanoma
# PROTOCOL TEXT: NCI-60 one-dose screen, 48 h
# PARTICULARS: 10 µM unless noted
About 83,000 compounds went through this panel and 20% of them were active in at least one assay; those are over-represented in the sample as a whole. Calls of active or inactive are those of the source. The calls were made as follows: active = growth percent below 10; inactive = the rest.
A correct response names exactly one class from yes (active), no (inactive)

// known answers, use as guide
O=C(CCCCCCN1CC(=O)N2[C@@H](c3ccccc3Br)c3[nH]c4ccccc4c3C[C@H]2C1=O)NO    no
Brc1cccc(-c2cc(-c3ccc4c(c3)OC=CO4)[nH]n2)c1    no
CC(Nc1c(C#N)cnc2ccc(-c3cncc(O)c3)cc12)c1ccccc1 (stereo not drawn)    yes

Query: recorded result category for `O=S(=O)(Oc1ccc(-c2cn3ccoc3n2)cc1)c1cccc(C(F)(F)F)c1` in this test
no

Per the records of this test, what outcome belongs to `Cc1csc(/N=C(N)/N=C(\N)c2cccs2)n1` ?
no

Called result for `Cc1ccc2c(n1)C(=O)C(Cl)=C(Nc1ccc(C(=O)OC(C)(C)C)cc1)C2=O`
no

For `C/C(=C(\c1ccc(O)cc1)c1ccc(OCCN2CCCCCC2)cc1)c1ccc(Cl)cc1` , what call appears in the results of this test?
yes

Could you kindly confirm the outcome this assay logged for O=C1c2ccccc2C23C(=C(c4cncnc4)c4ccccc42)CCCN13 (stereo not drawn) ?
no

// return assay outcome for `CN1CCN(Cc2ccc(NC(=O)c3cncc(C#Cc4cnc(N)nc4)c3)cc2C(F)(F)F)CC1`
yes

====

# Tested on: HCC-2998 colon
# PROTOCOL TEXT: NCI-60 one-dose screen, 48 h (100 = growth as untreated, 0 = no growth, -100 = all killed)
# PARTICULARS: 10 µM unless noted
About 83,000 compounds went through this panel and 20% of them were active in at least one assay; those are over-represented in the sample as a whole.
growth below 90% gives FALSE; growth at or above it gives TRUE.

For orientation, consider the following solved cases.
CC(C)(C)OC(=O)NCc1ccc(CNc2c([N+](=O)[O-])cnc3ccccc23)cc1    FALSE
Brc1cccc(-c2cc(-c3cnc4c(c3)OCCO4)n[nH]2)c1    FALSE

Confirm if growth reported for the compound `O=C(COc1ccc(/C=C2\C(=O)Nc3cc(Cl)ccc32)cc1)Nc1ccc(Cl)cc1` is 90% or above.
TRUE

Measured values drawn from PubChem BioAssay (NCI) for this set.
